assay: Single-dose renal impairment PK and safety study in non-Fabry subjects (Example 1); type: in vivo, human; details: human, plasma, oral, 150 mg, Comparison to Example 1 Severe Impairment (migalastat concentration), non-Fabry, severe impairment; 48 h
Experimental Endpoint: concentration at 48 h (ng/mL)
# unit: ng/mL | format: bare number

Report measured concentration at 48 h; entry is OC[C@H]1NC[C@H](O)[C@@H](O)[C@H]1O [migalastat] 334

----------
Assay: Single-dose renal impairment PK and safety study in non-Fabry subjects (Example 1)
Format: in vivo, human
Conditions: human, plasma, oral, 150 mg, single 150 mg migalastat HCl, non-Fabry; Moderate (N = 8)
Text: The eGFR was estimated by the Cockcroft-Gault equation per the FDA Guidance for renal impairment studies. Volunteers were enrolled into two cohorts stratified for renal function calculated using the Cockcroft-Gault equation for creatinine clearance (CLCR). Subjects were assigned to groups based on an estimated CLCR at screening as calculated using the Cockcroft-Gault equation. […]
Experimental Endpoint: Tmax (h)
# unit: h | format: bare number

Report measured Tmax; entry is OC[C@H]1NC[C@H](O)[C@@H](O)[C@H]1O 3
